Kindly find below Ki information for Histamine H3 receptor (Rattus norvegicus, UniProt Q9QYN8) taken from the literature.
Give the value in nM but do not write nM after it.

Reported Ki for `C[C@H]1CCCN1CCN1CCc2cc(-c3ccc(F)cc3)ccc2C1=O` : what is it?
110

Next compound: `C[C@@H]1CCCN1CCc1cc2cc(CNc3cc(C#N)nc(C#N)c3)ccc2o1`
0.4

Next compound: `CC(=O)N1CCN(Cc2ccc(-c3ccc(CN4CCN(C(C)=O)CC4)cc3)cc2)CC1`
3890

Next compound: `CCCCCC(=O)c1ccc(OCCCN2CCN(CCC)CC2)cc1`
27.5

Next compound: `C[C@@H]1CCCN1CCCOc1ccc(C(=O)CN2CCCC(F)(F)C2)cc1`
48

Next compound: `Cn1nc(-c2ccc(OCCCN3CCCCC3)cc2)c2c(c1=O)CCCC2`
4.5

Next compound: CC1CCN(CCCOc2ccc(-c3ccc(C(=O)N4CCCC4C)cc3)cc2)CC1 (stereo not given)
2.82

Next compound: CC1CCCN1C(=O)c1ccc(-c2ccc(OCCCN3[C@@H](C)CC[C@@H]3C)cc2)cc1 (stereo not given in full)
1.02

Next compound: `C[C@@H]1CCCN1CCc1cc2cc(CNc3cccc(C#N)c3)ccc2o1`
1.18

Next compound: CC1CCCN1C(=O)c1ccc(-c2ccc(OCCCN3CCOCC3)cc2)cc1 (stereo not given)
112

Next compound: `CCCCCC(=O)c1ccc(OCCCN2CCN(C(=O)C3CC3)CC2)cc1`
2.14

Next compound: `C[C@@H](NC(=O)c1ccc(C#N)cc1)C(=O)N1CCN(CCCOc2ccc(-c3noc(CC4CCCC4)n3)c(F)c2)CC1`
1.2

Next compound: `C[C@]12CC[C@@H]3c4ccc(OCc5cccnc5)cc4CC[C@H]3[C@@H]1CC[C@@H]2N1CCCC1`
19

Next compound: CC(O)COc1ccc2c(c1)CCC1(CCN(C3CCC3)CC1)O2 (stereo not given)
99

Next compound: `C[C@@H]1CCCN1CCc1cc2cc(Nc3ncccn3)ccc2o1`
2.01

Next compound: `CC(=O)N1CCN(CC(=O)c2ccc(OCCCN3CCC[C@H]3C)cc2)CC1`
30

Next compound: `C[C@H](COc1ccc(-c2ccc(=O)n(C)n2)cc1)CN1CCC[C@H]1C`
4.6

Next compound: `C[C@@H]1CCCN1CCCOc1c(F)cc(-c2ccc(=O)[nH]n2)cc1F`
40

Next compound: `CC[C@H](O)COc1ccc2c(c1)CCC1(CCN(C3CCC3)CC1)O2`
112

Next compound: `C(#Cc1c2c(nc3ccccc13)CCCCC2)CCN1CCCCC1`
407

Next compound: `C[C@@H]1CCCN1CCc1ccc(-c2ccc(S(=O)(=O)CCO)cc2)cc1`
1.2

Next compound: `CC1CCN(CCCOc2ccc(-c3ccc(C(=O)N4CCOCC4)cc3)cc2)CC1`
8.71

Next compound: `CC(C)CC(=O)N[C@H](C)C(=O)N1CCCN(CCCOc2ccc(-c3noc(CC4CCCC4)n3)c(F)c2)CC1`
1.1

Next compound: `C[C@@H](NC(=O)c1ccco1)C(=O)N1CCCN(CCCOc2ccc(-c3noc([C@@H](C)NC(=O)OC(C)(C)C)n3)c(F)c2)CC1`
28

Next compound: `O=C(CN1CCCCC1)c1ccc(OCCCN2CCCC2)cc1`
174

Next compound: `Cc1nn(-c2ccccn2)c(=O)cc1-c1ccc(OC2CCN(C3CCC3)CC2)cc1`
9

Next compound: `C[C@@H]1CCCN1CCc1cc2cc(CNc3ccc([N+](=O)[O-])cn3)ccc2o1`
1.19

Next compound: `CN(C)CCCNc1c2c(nc3ccccc13)CCSC2`
58.9

Next compound: `C[C@@H]1CCCN1CCCOc1ccc(-c2ccc(=O)[nH]n2)cc1`
7

Next compound: CC1CCCN1CCCOc1ccc2c(c1)C(=O)N(C)CC2 (stereo not given)
68

Next compound: `c1cc2c(cc1OCCCN1CCCCC1)CN(CC1CCCCC1)CC2`
0.46

Next compound: `C[C@@H](NC(=O)c1ccco1)C(=O)N1CCCN(CCCOc2ccc(-c3noc(-c4ccco4)n3)c(F)c2)CC1`
5

Next compound: `Cc1ccc(C)c(C(=O)N[C@H](C)C(=O)N2CCN(CCCOc3ccc(-c4noc(CC5CCCC5)n4)c(F)c3)CC2)c1`
6.6

Next compound: `C[C@@H]1CCCN1CCc1ccc(-c2ccc(S(=O)(=O)Cc3ccccc3)cc2)cc1`
0.6

Next compound: `C[C@@H]1CCCN1CCCOc1ccc(-c2ccc(=O)[nH]n2)cn1`
70

Next compound: `COc1ccc(OCCC[C@@H](c2ccc(-c3ccc(CN4CCCCC4)cc3)cc2)N2CCC[C@@H]2C)cc1`
2.09

Next compound: `CCCN(C)CCc1ccc2cc(-c3ccc(C#N)cc3)ccc2c1`
25.7

Next compound: `C[C@@H](NC(=O)CC(C)(C)C)C(=O)N1CCCN(CCCOc2ccc(-c3noc(CC4CCCC4)n3)c(F)c2)CC1`
4.9
